Each recorded value in this set is attributed to patent US12570612B2.

System: Sprague-Dawley rats
Assay: animal or person
Format: in vivo
Details: rats
Reported Approximate therapeutic index by item:

- smiles.text: "CC#CCOCC(=O)c1cc(F)nn1[C@H](C)c1ccccc1"
  assayed.target: "Sprague-Dawley rats"
  Approximate therapeutic index: ">6.0"

Look up Approximate therapeutic index for this compound: C/C=C\C(=O)c1cncn1[C@H](C)c1ccccc1
>16.6

###

Test system: Sprague-Dawley rats
Test: Continuous infusion at 2 times the MIR for 1 hour, Group B compounds
Format: in vivo
Conditions: continuous infusion 2 x MIR 1 hour; rats affected/rats
measurement.name: Types and incidence of adverse reactions: Tremor

- smiles.text: "C[C@H](c1ccccc1)n1nncc1C(=O)OC(C)(C)C"
  observed: "Tremor(3/6)"
- smiles.text: "C[C@H](c1ccccc1)n1nncc1C(=O)OC1(C)COC1"
  observed: "Tremor(3/6)"

###

System: Sprague-Dawley rats
Assay: animal or person
Format: in vivo
Conditions: rats
Reported Approximate therapeutic index by item:

Look up Approximate therapeutic index for this molecule: CCOC(=O)C(=O)c1cncn1[C@H](C)c1ccccc1
>15.2

###

Reported Adverse reaction: the four limbs rigidity by item:
System: Sprague-Dawley rats
Assay: Pharmacological effect and adverse reactions under the equivalent dose (2ED50), Group C compounds
Type: in vivo
Settings: equivalent dose (2ED50), number of rats of n = 8

- compound: "C[C@H](c1ccccc1)n1cncc1C(=O)COCC1CC1"
  assayed.target: "Sprague-Dawley rats"
  observed: 0

Look up Adverse reaction: the four limbs rigidity for this compound: COCC(=O)c1c(F)ncn1[C@H](C)c1ccccc1
1

Try this compound too: CC#CCOCC(=O)c1cncn1[C@H](C)c1ccccc1
0

Try this compound too: CC(=O)COCC(=O)c1cncn1[C@H](C)c1ccccc1
0

Try this compound too: CC#CCOCC(=O)c1ccnn1[C@H](C)c1ccccc1
0

Try this compound too: CC1OC1C(=O)c1cncn1[C@H](C)c1ccccc1 (stereo partly shown)
0

Try this compound too: CCOCC(=O)c1ccnn1[C@H](C)c1ccccc1
0

###

Reported pEC50 by item:
Test system: H295R cell line
Test: Adrenocortical function in vitro test: secretion of cortisol and corticosterone, Group A compounds
Format: cell-based
Details: Homo sapiens; H295 cells, 0.1-10000 nM, HPLC-MS/MS; read-out: EC50 (Corticosterone)
pEC50: −log10 of the molar value.

Examples from the recorded data:
- compound: "C=C=CC(C)(C)OC(=O)c1ccnn1[C@H](C)c1ccccc1 [Compound A14]"
  pEC50: "< 6.00"
- compound: "C=C=CC1(OC(=O)c2c(F)cnn2[C@H](C)c2ccccc2)COC1 [Compound A73]"
  pEC50: "< 6.00"
- compound: "C=C=CC1(OC(=O)c2c(Cl)cnn2[C@H](C)c2ccccc2)COC1 [Compound A108]"
  pEC50: "< 7.00"
- compound: "CC#CCOC(=O)c1c(F)cnn1[C@H](C)c1ccccc1 [Compound A72]"
  pEC50: "< 6.00"
- compound: "CC(C)c1cccc(C(C)C)c1O [Propofol, propofol, reference compound]"
  pEC50: "< 5.00"

Look up pEC50 for this compound: C[C@H](c1ccccc1)n1nccc1C(=O)OC1(C)COC1 [Compound A30]
< 6.00

Try this compound too: CCOC(=O)c1ccnn1[C@H](C)c1ccccc1 [Compound A1]
< 6.00

Try this compound too: C=CC#CC(C)(C)OC(=O)c1ccnn1[C@H](C)c1ccccc1 [Compound A16]
< 7.00

Try this compound too: CC#CC(C)OC(=O)c1ccnn1[C@H](C)c1ccccc1 (some centres unmarked) [Compound A11]
< 7.00

Try this compound too: CO[C@H]1C[C@@H](OC(=O)c2c(F)c(F)nn2[C@H](C)c2ccccc2)C1 [Compound A94]
< 6.00

Try this compound too: CC(=O)C1=C(OC(=O)c2ccnn2[C@H](C)c2ccccc2)CCC1 [Compound A18]
< 7.00

Try this compound too: CC(=O)C1=C(OC(=O)c2c(F)c(F)nn2[C@H](C)c2ccccc2)CCC1 [Compound A98]
< 6.00

Try this compound too: C=C=CC1(OC(=O)c2c(C(F)(F)F)cnn2[C@H](C)c2ccccc2)COC1 [Compound A100]
< 7.00

###

Test system: Sprague-Dawley rats
Assay: Pharmacological effect and adverse reactions under the equivalent dose (2ED50), Group D compounds
Type: in vivo
Settings: equivalent dose (2 × ED50), number of rats of n = 8
Reported Adverse reaction: Systemic stiffness, Convulsions, Opisthotonus by item:
Field format: numeric only.

- compound: "CCOC(OC)(OC)C(=O)c1ccnn1[C@H](C)c1ccccc1"
  assayed.target: "Sprague-Dawley rats"
  observed: 0

Look up Adverse reaction: Systemic stiffness, Convulsions, Opisthotonus for this compound: CCOC(OCC)(OCC)C(=O)c1cncn1[C@H](C)c1ccccc1
8

Try this compound too: COC(OC)(OC)C(=O)c1cc(F)nn1[C@H](C)c1ccccc1
0

Try this compound too: CCOC(=O)c1cncn1C(C)c1ccccc1 (centres unmarked) [Etomidate, reference compound]
0

Try this compound too: COC(OC)(OC(C)C)C(=O)c1ccnn1[C@H](C)c1ccccc1
0

###

Test system: Sprague-Dawley rats
Experiment: Pharmacological effect and adverse reactions under the equivalent dose (2ED50), Group C compounds
Format: in vivo
Conditions: equivalent dose (2ED50), number of rats of n = 8
Reported Adverse reaction: Systemic stiffness, Convulsions, Opisthotonus by item:
Field format: numeric only.

- compound: "CCC(CC)OCC(=O)c1c(F)ncn1[C@H](C)c1ccccc1 [Compound C78]"
  observed: 0

// switching to the query compound
Give recorded Adverse reaction: Systemic stiffness, Convulsions, Opisthotonus with Sprague-Dawley rats for the following compound: CC#CCOCC(=O)c1c(F)ncn1[C@H](C)c1ccccc1 [Compound C69]
1

###

Test system: SD rats
Conditions: continuous infusion 2 x MIR 1 hour; rats affected/rats
measurement.name: Types and incidence of adverse reactions: Tremor

- molecule: "COC(OC)(OC)C(=O)c1ccnn1[C@H](C)c1ccccc1 [Compound D1]"
  observed: "2/6"

// switching to the query molecule
Look up Types and incidence of adverse reactions: Tremor for this molecule: CCOC(=O)c1cncn1C(C)c1ccccc1 (stereo not drawn) [Etomidate, reference compound]
6/6

###

System: Sprague-Dawley rats
Assay: animal or person
Conditions: rats
Reported Approximate therapeutic index by item:

- compound: "CC=CC1(OC(=O)c2cnnn2C(C)c2ccccc2)COC1 (mixture of isomers) [Compound B21]"
  Approximate therapeutic index: ">11"
- compound: "C[C@H](c1ccccc1)n1nnc(Cl)c1C(=O)SC1CCC1 [Compound B80]"
  Approximate therapeutic index: ">3"
- compound: "COC(=O)C1=C(OC(=O)c2c(F)nnn2[C@H](C)c2ccccc2)CCC1 [Compound B36]"
  Approximate therapeutic index: ">7"
- compound: "C[C@H](c1ccccc1)n1nnc(I)c1C(=O)OC1(C)COC1 [Compound B140]"
  Approximate therapeutic index: ">2"
- compound: "CC(C)c1cccc(C(C)C)c1O [Propofol, propofol, reference compound]"
  Approximate therapeutic index: 5
- compound: "CCSC(=O)c1c(Br)nnn1[C@H](C)c1ccccc1 [Compound B120]"
  Approximate therapeutic index: ">21"
- compound: "C=CC(CC)OC(=O)c1cnnn1[C@H](C)c1ccccc1 (stereo partly drawn) [Compound B13]"
  Approximate therapeutic index: ">2"
- compound: "C=CCOC(=O)c1cnnn1[C@H](C)c1ccccc1 [Compound B10]"
  Approximate therapeutic index: ">16"

Look up Approximate therapeutic index for this compound: C[C@H](c1ccccc1)n1nnc(Br)c1C(=O)OC(C)(C)C [Compound B110]
>7

###

System: Sprague-Dawley rats
Test: Continuous infusion at 2 times the MIR for 1 hour, Group B compounds
Assay type: in vivo
Details: continuous infusion 2 x MIR 1 hour; rats affected/rats
measurement.name: Types and incidence of adverse reactions: Tremor

- smiles.text: "CCOC(=O)c1c(Br)nnn1[C@H](C)c1ccccc1"
  observed: "Tremor(4/6), Tongue"
- smiles.text: "C=C=CC1(OC(=O)c2cnnn2[C@H](C)c2ccccc2)COC1"
  observed: "Tremor(4/6), Tongue"

###

System: Sprague-Dawley rats
Test: Pharmacological characteristics at equivalent doses (2ED50), Group A compounds
Assay type: in vivo
Conditions: 2ED50, tail vein
Label 1 for high-side Righting reflex duration (at or above 3 min) and -1 for low-side Righting reflex duration (below it).

- molecule: "C=C=CC1(OC(=O)c2c(C(F)(F)F)cnn2[C@H](C)c2ccccc2)COC1"
  label: 1
- molecule: "C[C@H](c1ccccc1)n1nccc1C(=O)OC1CCC1"
  label: -1
- molecule: "C=C=CC1(OC(=O)c2cc(F)nn2[C@H](C)c2ccccc2)COC1"
  label: -1
- molecule: "CCOC(=O)c1cc(F)nn1[C@H](C)c1ccccc1"
  label: -1
- molecule: "COC1CC(OC(=O)c2c(F)cnn2C(C)c2ccccc2)C1 (stereo not drawn)"
  label: -1
- molecule: "C=C=CC1(OC(=O)c2c(F)c(F)nn2[C@H](C)c2ccccc2)COC1"
  label: -1
- molecule: "C=C=CC(C)(C)OC(=O)c1ccnn1[C@H](C)c1ccccc1"
  label: -1
- molecule: "CO[C@H]1C[C@@H](OC(=O)c2ccnn2[C@H](C)c2ccccc2)C1"
  label: -1

API: above_or_equal(metric=Righting reflex duration, cutoff=3 min) for item CC#CC(C)(C)OC(=O)c1ccnn1[C@H](C)c1ccccc1
1

Try this molecule too: C=CC#CC(C)OC(=O)c1ccnn1[C@H](C)c1ccccc1 (stereo partly drawn)
-1

Try this molecule too: C=CC1(OC(=O)c2cc(F)nn2[C@H](C)c2ccccc2)COC1
-1

Try this molecule too: C=CC1(OC(=O)c2ccnn2[C@H](C)c2ccccc2)COC1
-1

Try this molecule too: COC(=O)C1=C(OC(=O)c2c(C(F)(F)F)cnn2[C@H](C)c2ccccc2)CCCC1
-1

Try this molecule too: CC#CC1(OC(=O)c2ccnn2[C@H](C)c2ccccc2)COC1
-1
